src = BindingDB's records for doi:10.1021/acs.jmedchem.7b01557

test.system: Toll-like receptor 7 (Homo sapiens, UniProt Q9NYK1)
measurement.notes: Antagonist activity at human TLR7 expressed in HEK293 cells assessed as inhibition of R848-induced NF-kappaB activation-mediated SEAP production after 24 hrs by Quanti-blue-based assay
pIC50: −log10 of the molar value.
measure.name: pIC50

Some entries whose results are on file:
O=C(NNC(=O)c1ccccn1)c1ccc(Cl)cc1; 4.61
O=C(NNC(=O)c1ccccn1)c1ccc(Br)cc1; 4.77
O=C(NNC(=O)c1ncccc1O)c1ccc(C(F)(F)F)cc1; 4.87

1. O=C(NNC(=O)c1csc(-c2ccccc2)n1)c1ccccn1
2. Cc1nc(C(=O)NNC(=O)c2ccc(Cl)cc2)cs1
Quick one: lower pIC50, 1 or 2 ? // output: label of the selected item
2
(2: 4.35, 1: 5.24)

* * *

test.system: UniProt Q9NYK1
Sequence (Q9NYK1 whole entry): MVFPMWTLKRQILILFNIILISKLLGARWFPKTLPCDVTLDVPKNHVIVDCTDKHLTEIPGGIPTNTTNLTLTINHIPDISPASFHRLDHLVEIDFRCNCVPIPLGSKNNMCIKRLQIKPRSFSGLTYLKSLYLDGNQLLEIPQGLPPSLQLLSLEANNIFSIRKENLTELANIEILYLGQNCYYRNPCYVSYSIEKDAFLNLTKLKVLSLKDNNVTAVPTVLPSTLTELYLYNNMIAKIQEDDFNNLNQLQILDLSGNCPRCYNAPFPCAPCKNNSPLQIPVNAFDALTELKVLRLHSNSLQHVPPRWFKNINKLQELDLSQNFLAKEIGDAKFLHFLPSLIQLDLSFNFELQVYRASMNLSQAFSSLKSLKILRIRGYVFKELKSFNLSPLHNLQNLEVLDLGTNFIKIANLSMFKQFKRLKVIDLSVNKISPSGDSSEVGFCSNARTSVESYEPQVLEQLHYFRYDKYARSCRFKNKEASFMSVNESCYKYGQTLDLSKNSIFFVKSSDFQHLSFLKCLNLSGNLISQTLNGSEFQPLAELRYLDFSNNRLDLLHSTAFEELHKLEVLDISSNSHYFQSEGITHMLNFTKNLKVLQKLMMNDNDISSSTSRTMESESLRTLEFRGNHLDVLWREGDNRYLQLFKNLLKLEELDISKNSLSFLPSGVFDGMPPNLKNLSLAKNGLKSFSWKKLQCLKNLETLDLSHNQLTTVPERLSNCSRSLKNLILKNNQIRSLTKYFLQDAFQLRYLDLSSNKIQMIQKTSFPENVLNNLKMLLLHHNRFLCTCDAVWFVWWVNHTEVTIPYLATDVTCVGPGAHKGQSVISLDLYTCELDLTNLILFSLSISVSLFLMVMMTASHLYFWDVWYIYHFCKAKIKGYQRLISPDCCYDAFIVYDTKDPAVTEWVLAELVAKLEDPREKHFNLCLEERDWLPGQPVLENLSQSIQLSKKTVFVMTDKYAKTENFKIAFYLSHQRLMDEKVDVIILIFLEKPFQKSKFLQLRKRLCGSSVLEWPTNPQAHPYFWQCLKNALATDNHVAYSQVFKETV
measurement.notes: Antagonist activity at human TLR7 expressed in HEK293 cells assessed as inhibition of R848-induced NF-kappaB activation-mediated SEAP production after 24 hrs by Quanti-blue-based assay
pIC50: −log10 of the molar value.
measure.name: pIC50

Cc1ccc(-c2nc(C(=O)NNC(=O)c3ccccn3)cs2)cc1; 5.74

P. O=C(NNC(=O)c1csc(-c2cccnc2)n1)c1ccccn1
Q. O=C(NNC(=O)c1csc(-c2ccc(Cl)cc2Cl)n1)c1ccccn1
R. O=C(NNC(=O)c1csc(-c2cc(Cl)cc(Cl)c2)n1)c1ccccn1
Ascending sort, pIC50. Put the labels in the requested order and list them out.
P, R, Q

1. Nc1nccnc1C(=O)NNC(=O)c1cccc(C(F)(F)F)c1
2. O=C(NNC(=O)c1csc(-c2ccc(Cl)cc2)n1)c1ccccn1
3. O=C(NNC(=O)c1ncccc1O)c1ccc(Br)cc1
4. COc1ccc(-c2nc(C(=O)NNC(=O)c3ccccn3)cs2)cc1OC
hey, can you rank those compounds up there by pIC50? biggest number first please Put the labels in the requested order and list them out.
2, 4, 3, 1
(2: 5.68, 4: 5.41, 3: 4.76, 1: 4.42)

1. Nc1nccnc1C(=O)NNC(=O)c1ccc(C(F)(F)F)cc1
2. O=C(NNC(=O)c1ccccn1)c1cccc(C(F)(F)F)c1
3. O=C(NNC(=O)c1ncccc1O)c1ccc(OC(F)(F)F)cc1
4. O=C(NNC(=O)c1csc(-c2cccc(Cl)c2Cl)n1)c1ccccn1
5. O=C(NNC(=O)c1csc(-c2ccc(C(F)(F)F)cc2)n1)c1ccccn1
hey, can you rank those compounds up there by pIC50? biggest number first please Put the labels in the requested order and list them out.
4, 5, 3, 2, 1
(4: 6.30, 5: 6.00, 3: 5.10, 2: 4.82, 1: 4.60)

A. Cc1nc(C(=O)NNC(=O)c2ccccn2)cs1
B. Nc1cccnc1C(=O)NNC(=O)c1cccc(C(F)(F)F)c1
Could you kindly indicate whether A or B has the higher pIC50 value? // output: label of the selected item
B

* * *

test.system: Toll-like receptor 7 (Homo sapiens)
measurement.notes: Antagonist activity at human TLR7 expressed in HEK293 cells assessed as inhibition of R848-induced NF-kappaB activation-mediated SEAP production after 24 hrs by Quanti-blue-based assay
pIC50: −log10 of the molar value.
measure.name: pIC50

Some entries whose results are on file:
O=C(NNC(=O)c1ccccn1)c1ccc(OC(F)(F)F)cc1; 4.66
Nc1nccnc1C(=O)NNC(=O)c1ccc(OC(F)(F)F)cc1; 4.57

P. O=C(NNC(=O)c1ncccc1O)c1ccc(Cl)cc1
Q. CC(C)c1nc(C(=O)NNC(=O)c2ccccn2)cs1
Could you kindly indicate whether P or Q has the higher pIC50 value? // output: label of the selected item
Q
